# IL2-luciferase reporter (RLU), fold increase over WT CD80-IgV-Fc at 5.0 nM listing for each entry below
target: CD28 (human) (UniProt P10747)
// return numeric value only (unit: fold, not printed)

Sample answers from the record:
[
  {
    "Binder": "CD80 E35D/M47V IgV-Fc (Fc fusion) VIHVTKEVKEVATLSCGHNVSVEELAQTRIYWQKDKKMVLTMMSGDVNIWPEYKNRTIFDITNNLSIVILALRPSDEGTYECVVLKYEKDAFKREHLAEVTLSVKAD",
    "Observed": 3.4
  },
  {
    "Binder": "CD80 E35D/L97R IgV-Fc (Fc fusion) VIHVTKEVKEVATLSCGHNVSVEELAQTRIYWQKDKKMVLTMMSGDMNIWPEYKNRTIFDITNNLSIVILALRPSDEGTYECVVLKYEKDAFKREHRAEVTLSVKAD",
    "Observed": 2.3
  },
  {
    "Binder": "CD80 H18Y/E35D/M47L/A71G/A91S IgV-Fc (Fc fusion) VIHVTKEVKEVATLSCGYNVSVEELAQTRIYWQKDKKMVLTMMSGDLNIWPEYKNRTIFDITNNLSIVILGLRPSDEGTYECVVLKYEKDSFKREHLAEVTLSVKAD",
    "Observed": 4.7
  }
]

# lookup: IL2-luciferase reporter (RLU), fold increase over WT CD80-IgV-Fc at 5.0 nM of CD80 E35D/D46E/M47I IgV-Fc (Fc fusion) VIHVTKEVKEVATLSCGHNVSVEELAQTRIYWQKDKKMVLTMMSGEINIWPEYKNRTIFDITNNLSIVILALRPSDEGTYECVVLKYEKDAFKREHLAEVTLSVKAD 4.8
